List of normalized RNA/DNA level with ligand (log10) values.
B1: library; a variant is named by its letters at N, in order (parent)
chain: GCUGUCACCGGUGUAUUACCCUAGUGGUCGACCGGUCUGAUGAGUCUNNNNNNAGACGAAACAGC

Variants of: B1
Experiment: normalized RNA/DNA level with ligand (relative to sTRSVctl = 100) (log10 (% of sTRSVctl)); ligand: hypoxanthine (xanthine aptamer); higher = less ribozyme self-cleavage, higher mRNA level
Settings: ligand concentration (+) RNA-Seq: 5 mM, HEK293T, reporter: mCherry (pCS4076), ligand present: yes
Form: value (number only, do not type unit).

mutation_annotation	experimental_value
CAAUCU	2.01
ACGGAU	1.72
UCUGAA	1.95

## Input Give the value of normalized RNA/DNA level with ligand (log10) reported for the following: AACGGG
## Output 1.83

## Input Identify the reported normalized RNA/DNA level with ligand (log10) for the following entry. AGAUGG
## Output 1.84

## Input Give the value of normalized RNA/DNA level with ligand (log10) reported for the following: UGCGAG
## Output 1.87

## Input Return the recorded normalized RNA/DNA level with ligand (log10) value; entry: UCGAAC
## Output 1.93

## Input Entry AAUCGA needs its normalized RNA/DNA level with ligand (log10) filled in; supply it.
## Output 1.92

## Input Please report normalized RNA/DNA level with ligand (log10) for the following variant: UAGAUU
## Output 1.93

## Input Given the variant CGCCUU , write its reported normalized RNA/DNA level with ligand (log10).
## Output 1.94
